System: Plasmodium falciparum
Assay: GSK_TCMDC: Inhibition of Plasmodium falciparum Dd2 in whole red blood cells, using parasite LDH activity as an index of growth. Test compounds present at 2uM
Type: functional
ENDPOINT: Inhibition
The reply should read as a number followed by its unit.

Here are 5 molecules together with their reported answers.
{"MOLECULE": "COc1ccc2ncc(F)c([C@@H](O)CN3CCC(NCc4cc5c(cn4)OCCO5)CC3)c2c1.Cl", "Inhibition": "98%"}
{"MOLECULE": "CCc1cn2c3c(cc(C(=O)N[C@@H](Cc4ccccc4)[C@H](O)CNC4CCOCC4)cc13)N(C(C)C)S(=O)(=O)CC2.O=CO", "Inhibition": "99%"}
{"MOLECULE": "Br.Oc1ccc(CCNCCCCNCCc2ccc(Cl)cc2)cc1O", "Inhibition": "0%"}
{"MOLECULE": "O=C(Nc1ccc(I)cc1)Nc1ccc(Cn2ncc(N3CCCNCC3)c(Cl)c2=O)cc1.O=C(O)C(F)(F)F", "Inhibition": "30%"}
{"MOLECULE": "CCc1ccc(C(=O)Nc2cccc(CN3CCCN(Cc4ccc(O)cc4)CC3)c2)cc1.O=C(O)C(F)(F)F", "Inhibition": "74%"}

Let me know recorded Inhibition for Cl.O=C(C=Cc1ccc(F)cc1)NC1CCC(CCN2CCc3ccc(-c4cnccn4)cc3CC2)CC1 (centres undefined) , thanks.
65%

Let me know recorded Inhibition for O=C(NC1CC1)c1ccc(N2CCCC(COc3ccccc3F)C2)nc1 (centres undefined) , thanks.
92%

Let me know recorded Inhibition for "COCCNCc1cccc(-c2ccc3c(Nc4cc(O)c(Cl)cc4F)ccnc3c2)c1" , thanks.
79%

Let me know recorded Inhibition for "CN(C)c1cc(C(=O)N[C@@H](Cc2ccccc2)[C@H](O)CNC2CCCCC2)cc2[nH]ccc12.O=CO" , thanks.
97%

Let me know recorded Inhibition for "CC1(C)N=C(N)N=C(N)N1OCc1ccc2ccccc2c1" , thanks.
97%

Let me know recorded Inhibition for COc1ccc(C2C(C(=O)Nc3ccccc3)=C(C)Nc3c(C(=O)Nc4ccccc4)cnn32)cc1 (centres undefined) , thanks.
66%

Let me know recorded Inhibition for "O=C(Nc1ccc(OC(F)(F)F)cc1)Nc1ccc([N+](=O)[O-])cc1" , thanks.
100%

Let me know recorded Inhibition for Cc1ccccc1C1CCN(C2CCC(NC(=O)/C=C/c3cccc(Cl)c3)CC2)CC1 (centres undefined) , thanks.
34%

Let me know recorded Inhibition for "COc1ccc(CCN2CCC(CN(C)Cc3cnn(-c4ccccc4)c3)CC2)cc1" , thanks.
5%

Let me know recorded Inhibition for "Cc1cccc(-c2ccc(NC(=O)C3CCN(Cc4cccc(O)c4)CC3)cc2)c1" , thanks.
64%

* * *

Tested on: Plasmodium falciparum
Assay: GSK_TCMDC: Inhibition of Plasmodium falciparum 3D7 in whole red blood cells, using parasite LDH activity as an index of growth. Test compounds present at 2uM
Format: functional
In this section we review reported Inhibition values for a set of compounds.
Response body: numeric value in %, unit text excluded.

Here are 3 compounds together with their reported answers.
{"COMPOUND": "CCCNCc1ccc(-c2ccc(CN(Cc3ccc4c(c3)OCO4)C(=O)Cc3cccnc3)cc2)nc1.O=C(O)C(F)(F)F", "EXPERIMENTAL_TARGET": "Plasmodium falciparum", "MEASURED_VALUE": 94}
{"COMPOUND": "CN(C)c1ccc(-c2nnc(Sc3ccc(C#N)c([N+](=O)[O-])c3)n2Cc2ccco2)cc1", "EXPERIMENTAL_TARGET": "Plasmodium falciparum", "MEASURED_VALUE": 95}
{"COMPOUND": "COC(=O)C(Cc1ccccc1)C(CSCc1ccc(OC)cc1)C(=O)N[C@@H](C(=O)OC(C)(C)C)c1ccc(C(C)(C)C)cc1 (some centres undefined)", "EXPERIMENTAL_TARGET": "Plasmodium falciparum", "MEASURED_VALUE": 93}

State the measured Inhibition (Plasmodium falciparum) of COc1ccc(C(O)CNC(C)CCc2ccc(F)cc2)cc1C(F)(F)F.Cl (centres undefined)
99
